Test system: Papiliotrema laurentii
EXPERIMENT NOTES: Antimycotic activity against Cryptococcus laurentii DBVPG 6265 by agar diffusion disk bioassay
Type: functional
Returns class 1 if the recorded inhibition zone (IZ) is greater than or equal to 20 mm, and class 0 otherwise.

[
  {
    "COMPOUND": "COc1ccc2c(c1)OC(c1ccc(O)cc1)CS2 (stereo unspecified)",
    "CLASSIFICATION": "class 1"
  },
  {
    "COMPOUND": "COc1ccc(C2CSc3c(O)cc(O)cc3O2)cc1 (stereo unspecified)",
    "CLASSIFICATION": "class 0"
  },
  {
    "COMPOUND": "Oc1ccc(C2CSc3ccc(O)cc3O2)cc1 (stereo unspecified)",
    "CLASSIFICATION": "class 0"
  },
  {
    "COMPOUND": "COc1cc(OC)c2c(c1)OC(c1ccc(O)c(O)c1)CS2 (stereo unspecified)",
    "CLASSIFICATION": "class 0"
  },
  {
    "COMPOUND": "COc1ccc(C2CSc3ccc(O)cc3O2)cc1 (stereo unspecified)",
    "CLASSIFICATION": "class 0"
  },
  {
    "COMPOUND": "Oc1ccc(C2CSc3cc(O)ccc3O2)cc1 (stereo unspecified)",
    "CLASSIFICATION": "class 0"
  }
]
